Target: T1, human 5T4ECDHis (mature protein of SEQ ID NO: 99) (human, UniProt Q13641 32-355)
T1 construct: ECD of human 5T4 (aa 1-355 of Uniprot Q13641) with C-terminal His tag; residues 1-31 are the signal peptide; also called ECD of human 5T4 with a C-terminal His tag
T1 sequence: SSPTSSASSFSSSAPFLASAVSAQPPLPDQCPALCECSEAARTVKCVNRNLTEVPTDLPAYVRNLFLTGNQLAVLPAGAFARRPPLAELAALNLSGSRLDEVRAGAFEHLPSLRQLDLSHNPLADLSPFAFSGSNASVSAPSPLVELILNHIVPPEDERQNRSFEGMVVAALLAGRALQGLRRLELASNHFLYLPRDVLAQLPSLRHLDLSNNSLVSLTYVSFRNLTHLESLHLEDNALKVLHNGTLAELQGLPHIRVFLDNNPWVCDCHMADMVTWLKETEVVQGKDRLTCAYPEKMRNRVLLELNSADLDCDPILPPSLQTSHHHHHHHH
Assay: BLI cross-block; competitor (immobilised): IgG1-5T4-207-FEAR
// corrected association response lookup, one value per entry
Reply numerically in nm, unit not repeated.

# Binder, corrected association response, nm
records = [
    ("IgG1-5T4-127-FEAR (antibody, V domains shown, Monospecific, bivalent human IgG1 kappa with L234F, L235E, D265A, K409R (FEAR)) VH: EVQLLESRGGLVQPGGSLRLSCAASGFTFSSYAMSWVRQAPGKGLEWVSTISGSGGSTYYADSVKGRFTISRDNSKKTLYLQMNSLRAEDTAVYYCAKDWGSGSYPAEYFQHWGQGTLVTVSS VL: EIVLTQSPATLSLSPGERATLSCRASQSVSSYLAWYQQKPGQAPRLLIYDASNRATGIPARFSGSGSGTDFTLTISSLEPEDFAVYYCQQRSNWLMYTFGQGTKLEIK", 1.29),
    ("IgG1-5T4-106-FEAR (antibody, V domains shown, Monospecific, bivalent human IgG1 kappa with L234F, L235E, D265A, K409R (FEAR)) VH: EVQLVQSGAEVKKPGESLKISCKGSGYRFTSYWIGWVRQMPGKGLEWMGIIYPGDSDARYSPSFQGQVTISADKSISTAYLQWSSLKASDTGMYYCARSVLFDYWGQGTLVTVSS VL: AIQLTQSPSSLSASVGDRVTITCRASQGISSALAWYQQKPGKAPKLLIYDVSNLESGVPSRFSGSGSGTDFTLTISSLQPEDFATYYCQQFNSYPHTFGQGTKLEIK", -0.01),
]

Now look at this entry.
Per the records, this binder ( IgG1-5T4-207-FEAR (antibody, V domains shown, Monospecific, bivalent IgG1 FEAR) VH: QVQLQQWGAGLLKPSETLSLTCAVYGGSFSGYYWTWIRQPPGKGLEWIGEIDHSESTNYNPSLKSRVTISVDTSKNQFSLKLSSVTAADTAVYYCAGWFGELYHYYYGMDVWGQGTTVTVSS VL: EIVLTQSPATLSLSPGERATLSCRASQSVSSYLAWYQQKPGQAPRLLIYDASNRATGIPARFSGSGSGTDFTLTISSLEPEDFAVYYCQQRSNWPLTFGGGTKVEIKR ) has corrected association response equal to -0.02
